experiment: In vitro metabolic stability in human liver microsomes; format: in vitro ADME; conditions: liver microsomes (pooled), pH 7.4; human liver microsomes; read-out: CLint, ivtro
property: microsomal CLint at 1 µM (µL/min/mg)
Express your answer in µL/min/mg, writing the number without its unit.

What value of microsomal CLint at 1 µM has been reported for the following compound? COc1ccc(CNc2nc(N3CCC[C@H]3CO)ncc2C(=O)NCc2ccccn2)cc1Cl 21.4

* * *

assay: Stability in plasma, 6 h incubation at 37°C (human); format: in vitro ADME; settings: 1 µM, n = 3, read-out: Mean drug remaining %
property: remaining at 6 h, 1 µM (%)
// units = %; emit number, no label

Query: remaining at 6 h, 1 µM; subject: COc1ccc(CNc2nc(N3CCC[C@H]3CO)ncc2C(=O)NCc2ccccn2)cc1Cl 102

* * *

assay: Plasma protein binding by equilibrium dialysis (dog); assay type: in vitro ADME, Beagle dog; conditions: beagle, dog, plasma, pH 7.4, dog plasma, 1 µM, equilibrium dialysis 6 h; read-out: Mean PPB %
property: fraction unbound at 6 h, 1 µM
Just the number, please, no unit after it.

Fill in: fraction unbound at 6 h, 1 µM of COc1ccc(CNc2nc(N3CCC[C@H]3CO)ncc2C(=O)NCc2ccccn2)cc1Cl [NHPPC] is ___ 0.001

* * *

assay: In vitro metabolic stability in rat liver microsomes; format: in vitro ADME; conditions: rat, liver microsomes, pH 7.4, rat liver microsomes, 60 min, without NADPH regenerating system; read-out: percent remaining
property: remaining at 1 h, 1 µM

Which remaining at 1 h, 1 µM value belongs to COc1ccc(CNc2nc(N3CCC[C@H]3CO)ncc2C(=O)NCc2ccccn2)cc1Cl ? 102%

* * *

Assay: In vitro metabolic stability in rat liver microsomes
Format: in vitro ADME
Conditions: pH 7.4; rat liver microsomes
Method: The phosphate buffer (pH 7.4, 100 mM) and (300 mM) were prepared in deionized water. NADP and IA were dissolved in phosphate buffer and MgCl2 solution and then added 20 μL IDH (18 units/mg protein) and mixed. […] NHPPC and control concentrations were determined by LC-MS/MS at each time point (n = 3). […] Hepatic intrinsic clearance was estimated by using the scaling factors and calculated by using the following equation (Lave et al. [1997]). […]
property: half-life at 1 µM
The reply should consist of the numeric value with the unit placed after it.

Which half-life at 1 µM value is on record for COc1ccc(CNc2nc(N3CCC[C@H]3CO)ncc2C(=O)NCc2ccccn2)cc1Cl ? 42.5 min

* * *

experiment: In vitro metabolic stability in dog liver microsomes; assay type: in vitro ADME; settings: dog, liver microsomes, pH 7.4, dog liver microsomes, 60 min, without NADPH regenerating system; read-out: percent remaining
property: remaining at 1 h, 1 µM (%)
# unit: % | format: bare number

Look at this molecule and give its reported remaining at 1 h, 1 µM. COc1ccc(CNc2nc(N3CCC[C@H]3CO)ncc2C(=O)NCc2ccccn2)cc1Cl 98.4

* * *

assay: Stability in plasma, 6 h incubation at 37°C (human); format: in vitro ADME; conditions: mean of 0.2 and 1 µM, read-out: Mean drug remaining %
property: remaining at 6 h (%)
Reply numerically in %, unit not repeated.

// query remaining at 6 h value for entry COc1ccc(CNc2nc(N3CCC[C@H]3CO)ncc2C(=O)NCc2ccccn2)cc1Cl 101

* * *

assay: In vivo pharmacokinetic study in dogs; design: species or system male Beagle dogs; conditions: male, Beagle, plasma; dog, PO 1 mg/kg
property: AUC(0-t) (ng·h/mL)
State just the number; it will be interpreted in ng·h/mL.

What AUC(0-t) value was documented for this compound, COc1ccc(CNc2nc(N3CCC[C@H]3CO)ncc2C(=O)NCc2ccccn2)cc1Cl ? 351
